Molecular target: HER-2 (Homo sapiens, UniProt P04626)
Construct: His6 with thrombin site (N)
Sequence (P04626 679-1255): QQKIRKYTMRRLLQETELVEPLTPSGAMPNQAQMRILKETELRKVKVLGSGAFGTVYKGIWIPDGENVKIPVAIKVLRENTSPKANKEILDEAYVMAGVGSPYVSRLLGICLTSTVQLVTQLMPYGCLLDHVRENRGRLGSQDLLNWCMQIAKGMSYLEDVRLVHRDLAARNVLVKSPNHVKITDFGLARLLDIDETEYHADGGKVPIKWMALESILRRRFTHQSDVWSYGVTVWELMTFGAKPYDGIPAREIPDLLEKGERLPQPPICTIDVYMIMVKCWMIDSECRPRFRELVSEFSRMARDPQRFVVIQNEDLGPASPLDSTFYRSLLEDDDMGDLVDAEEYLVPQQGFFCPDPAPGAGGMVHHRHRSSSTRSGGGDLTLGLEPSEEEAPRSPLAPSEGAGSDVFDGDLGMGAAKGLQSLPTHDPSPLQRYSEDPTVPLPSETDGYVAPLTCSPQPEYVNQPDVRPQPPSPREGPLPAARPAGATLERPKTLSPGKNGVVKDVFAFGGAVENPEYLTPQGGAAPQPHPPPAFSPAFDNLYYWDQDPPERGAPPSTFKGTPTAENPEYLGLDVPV
Assay: HER-2 Kinase Assay
Conditions: value in parentheses
pIC50: −log10 of the molar value.
Class Fulfilled: pIC50 at least 7. Class Not fulfilled: pIC50 below 7.

>  <Smiles representation>
O=C(Nc1ccc(N2CCOCC2)cc1)c1sc2ncnc3c2c1NC(=O)N3c1ccc(N2CCOCC2)cc1

>  <Classification>
Not fulfilled

$$$$
>  <Smiles representation>
O=C(O)c1sc2ncnc3c2c1NC(=O)N3c1ccc2c(cnn2Cc2cccc(F)c2)c1

>  <Classification>
Not fulfilled

$$$$
>  <Smiles representation>
COc1cc(NC(=O)c2sc3ncnc4c3c2NC(=O)N4c2ccc(Oc3ccccc3)cc2)ccc1CN1CCCCC1

>  <Classification>
Fulfilled

$$$$
>  <Smiles representation>
O=C(Nc1ccc(CN2CCOCC2)cc1)c1sc2ncnc3c2c1NC(=O)N3c1ccc(Oc2ccccc2)c(Br)c1

>  <Classification>
Not fulfilled

$$$$
>  <Smiles representation>
Cc1ccc(Oc2ccc(N3C(=O)Nc4c(C(=O)Nc5ccc(CN6CCOCC6)cc5)sc5ncnc3c45)cc2Cl)cn1

>  <Classification>
Not fulfilled

$$$$

* * *

compounds and their reported IC50
Biological target: EGFR (Homo sapiens, UniProt P00533)
Construct: The intracellular portion of EGFR started at nucleotide 2189 (corresponding to amino acid 667) and ended at the termination codon
Sequence (P00533 669-1210 limits assumed): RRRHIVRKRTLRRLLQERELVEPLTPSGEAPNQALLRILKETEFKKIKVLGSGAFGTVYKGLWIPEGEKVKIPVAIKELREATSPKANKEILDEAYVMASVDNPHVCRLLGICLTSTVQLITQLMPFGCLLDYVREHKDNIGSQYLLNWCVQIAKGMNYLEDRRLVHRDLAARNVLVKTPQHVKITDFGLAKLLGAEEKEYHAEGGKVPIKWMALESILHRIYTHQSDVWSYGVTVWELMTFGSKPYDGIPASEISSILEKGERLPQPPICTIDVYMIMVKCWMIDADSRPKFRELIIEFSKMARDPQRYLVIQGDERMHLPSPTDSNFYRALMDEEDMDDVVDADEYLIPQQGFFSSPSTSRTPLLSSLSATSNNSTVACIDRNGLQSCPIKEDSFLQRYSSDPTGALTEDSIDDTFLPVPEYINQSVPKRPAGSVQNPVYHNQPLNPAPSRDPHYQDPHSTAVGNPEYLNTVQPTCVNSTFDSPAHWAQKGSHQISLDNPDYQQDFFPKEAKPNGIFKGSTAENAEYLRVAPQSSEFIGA
Test: EGFR Kinase Assay
Details: GST-EGFR, ATP 5 μM
Readout label: IC50

>  <Compound>
O=C(Nc1ccc(CN2CCOCC2)cc1)c1sc2ncnc3c2c1NC(=O)N3c1ccc(Oc2cccc(F)c2)cc1 [Cpd 134]

>  <Measured on>
EGFR (Homo sapiens, UniProt P00533)

>  <Observed measurement>
21 nM

$$$$
>  <Compound>
O=C(Nc1nccs1)c1sc2ncnc3c2c1NC(=O)N3c1ccc(F)c(Cl)c1 [Cpd 4]

>  <Measured on>
EGFR (Homo sapiens, UniProt P00533)

>  <Observed measurement>
72 nM

$$$$
>  <Compound>
COc1cc(NC(=O)c2sc3ncnc4c3c2NC(=O)N4c2ccc(Oc3ccccc3)cc2)ccc1CN1CCOCC1 [Cpd 176]

>  <Measured on>
EGFR (Homo sapiens, UniProt P00533)

>  <Observed measurement>
22 nM

$$$$
>  <Compound>
COC1CCN(Cc2ccc(NC(=O)c3sc4ncnc5c4c3NC(=O)N5c3ccc(Oc4ccccc4)cc3)cc2)CC1 [Cpd 261]

>  <Measured on>
EGFR (Homo sapiens, UniProt P00533)

>  <Observed measurement>
18 nM

$$$$
>  <Compound>
O=C(Nc1ccc(CN2CCOCC2)c(OC(F)(F)F)c1)c1sc2ncnc3c2c1NC(=O)N3c1ccc(Oc2ccccc2)cc1 [Cpd 239]

>  <Measured on>
EGFR (Homo sapiens, UniProt P00533)

>  <Observed measurement>
114 nM

$$$$
>  <Compound>
Cc1cc(NC(=O)c2sc3ncnc4c3c2NC(=O)N4c2ccc(Oc3ccccc3)cc2)ccc1CN1CCOCC1 [Cpd 232]

>  <Measured on>
EGFR (Homo sapiens, UniProt P00533)

>  <Observed measurement>
41 nM

$$$$
>  <Compound>
COc1cc(NC(=O)c2sc3ncnc4c3c2NC(=O)N4c2ccc(OCc3cccs3)c(Cl)c2)ccc1CN1CCCCC1 [Cpd 228]

>  <Measured on>
EGFR (Homo sapiens, UniProt P00533)

>  <Observed measurement>
17 nM

$$$$
